TEST_DETAILS: NCI Yeast Anticancer Drug Screen. Data for the mlh1 rad18 strain (AID 175)
PARTICULARS: S. cerevisiae mlh1 rad18 strain growth inhibition; at 5.0 µM (retest, dose inferred, filed as 0.5); active compounds read high
Compounds without any hit were thinned out: in the full panel of roughly 79,000, 15% have a hit.
Listing: growth inhibition of selected molecules
Give a bare numeral; the unit % is implied.

| MOLECULE | growth inhibition, % |
| --- | --- |
| CCOC(=O)c1ccccc1NC(OCC)C(=O)c1ccccc1 (stereo not given) (tested in a mixture with another compound) | 0 |
| COC(=O)Oc1nn(C(=O)OC)c(=O)c2ccccc12 | -12 |
| CCCCCCCN(CCCCCCC)CC(O)Cc1cc2c(c3ccccc13)CCCC2 (stereo not given) | 24 |
| O=C(Nc1ccccc1)C(F)(F)C(F)(F)C(F)(F)F | 5 |
| Cc1cc(Cc2cccc(Cl)c2)ccc1O | -8 |
| CCO/C=C1\N=C(C(O)(c2ccc(Cl)cc2)c2ccc(Cl)cc2)OC1=O | -1 |
| CC1=C2CCC3C(CCC4(C)C(C(C)CCCC(C)C)CCC34)C2(C)CCC1=O (stereo not given) | 17 |
| CC(=O)OCCSCCOC(C)=O | 7 |
| CCCOC(=O)CCCC(=O)N(CC)CC | -5 |
| N#Cc1c(N)nc2c(N=Nc3ccccc3)c(N)nn2c1Nc1ccccc1 | -4 |

Fill blank: measured growth inhibition of the molecule CCOc1ccccc1N=Nc1ccc2oc(=O)c(C(=O)Nc3cccc(C)c3)cc2c1 is ____.
3

Fill in the blank: the reported growth inhibition of Nc1cc2[nH]c(=O)c3cc(Cl)ccc3c2cc1Cl is ____.
65

# lookup: growth inhibition of CCC[C@H]1[C@H](CCC)[C@@]2(OC(=O)C3=C2CCC=C3)[C@]12OC(=O)C1=C2CCC=C1
1

Requested read-out: growth inhibition. Entry: CCCCCCCCCCCCCCNCCN
25

Please give the measured growth inhibition for this molecule: O=C(CC(=O)Nc1cccc(Cl)c1)NNCC(=O)Nc1nnc(-c2ccccc2)s1
3

Look up growth inhibition: CN(C)CCCNCC(=O)Nc1ccc(S(=O)(=O)c2ccc(NC(=O)CNCCCN(C)C)cc2)cc1
3

Need growth inhibition, item CCCCC(O)CCCC
31

// returns reported growth inhibition for input CC(=O)OC1CCC2(C)C(C1)C(OC(C)=O)CC1C3CCC(c4cccc(=O)o4)C3(C)CCC12 (stereo not given)
-6

Sample CC1OC(c2ccc3c(c2)OCO3)OC1C (stereo not given) — what was its growth inhibition?
2

Which growth inhibition value is on record for O=C1C(=O)c2ccccc2C(O)=C1C(c1ccccc1)c1ccccc1 ?
54

---

The following compounds are shown together with reported growth inhibition values.
TEST_DETAILS: NCI Yeast Anticancer Drug Screen. Data for the sgs1 mgt1 strain (AID 161);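 also: 0% = growth of cultures given vehicle only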
PARTICULARS: S. cerevisiae sgs1 mgt1 strain, at 50.0 µM, active compounds read high
The panel holds about 79,000 compounds, 15% with a hit somewhere; the sample as a whole holds those more often.
Enter your answer as a number in %; do not include the unit.

| COMPOUND | OBSERVED |
| --- | --- |
| CCC[C@H]1[C@H](CCC)[C@@]2(OC(=O)C3=C2CCC=C3)[C@]12OC(=O)C1=C2CCC=C1 | 92 |

Please report the recorded growth inhibition for C/C(=C\N1CCN(c2ccc(Cl)cc2)C(C)C1)C(=O)c1ccccc1 (centres undefined) .
79.8

Give its growth inhibition value. Item: CCC1(C)C(C#N)(C#N)C1(C#N)C#N
97.8

// lookup growth inhibition for CCCCCCCCCCCCCCCCOCC(Cl)COP(=O)(O)OP(=O)(O)OCC1OC(n2cc(C)c(=O)[nH]c2=O)CC1O (centres undefined)
93

// query growth inhibition value for entry C=Cc1ccccc1C1(O)C=CC(OC)(OC)C=C1
34.5

---

TEST_DETAILS: NCI Yeast Anticancer Drug Screen. Data for the rad50 strain (AID 155);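 also: 0% = growth of vehicle-only cultures of the same strain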
PARTICULARS: S. cerevisiae rad50 strain growth inhibition; at 50.0 µM (retest, dose inferred, filed as 5.0); active compounds read high
The panel holds about 79,000 compounds, 15% with a hit somewhere; the sample as a whole holds those more often.
Listed here: items and their measured growth inhibition.
Use % as the unit, but write only the number.

// solved cases for growth inhibition follow
| COMPOUND | OBSERVED |
| --- | --- |
| CC(C)=NNc1ncnc2nc[nH]c12 | 3 |
| Cc1c2cnccc2c(C)c2c1c1ccccc1n2CCCN | 73 |
| COc1ccc2c(Cc3ccc(Cl)cc3)cncc2c1O | 91 |
| CC(=O)Nc1c(Cl)ccc2c1Cc1cc([N+](=O)[O-])ccc1-2 | 92 |
| CN(C)c1ccc(/C=C/c2nc3ccccc3s2)cc1 | 79 |

Consider the compound O=C1C(N=Nc2ccccc2)=C(O)C2C3C=CC(C3)C12 (stereo not given) and give its measured growth inhibition.
98

Could you tell me which growth inhibition is on file for Nc1nc(-c2ccccc2)nc(Cl)c1I ?
17

Please look up its growth inhibition: ON(Cc1ccccc1)C(=S)c1ccccc1
98

# get_value(readout='growth inhibition', item= Cc1ccc(S(=O)(=O)NCCSSCCNS(=O)(=O)c2ccc(C)cc2)cc1 )
95

Endpoint output: growth inhibition of Cc1ccc(N=C(N)Nc2ccc(C)cn2)nc1 . Value?
78

Which growth inhibition is listed for CCc1ccccc1NC(=O)C(=O)C(C#N)c1c(Cl)cccc1Cl (stereo not given) ?
-2

Can you share its growth inhibition? I mean this compound: CC1C(CCC(=O)O)OC2CC3C4CCC5CC(O)CCC5(C)C4CCC3(C)C21 (stereo not given)
56

Reported growth inhibition, compound Cc1cc2nc3n(c2cc1C)C(c1c(F)cccc1F)SC3 (stereo not given) : ____
24

Entry ICCCCSc1cc(-c2ccccc2)[o+]c2ccccc12 has what growth inhibition?
92

Bench note: what growth inhibition did CCC(CC)=NNc1ccc([N+](=O)[O-])cc1 show?
96

Entry under review: C/C(=N\NC(=O)c1ccc([N+](=O)[O-])cc1)c1ccccc1 . Reported growth inhibition?
-5

Reported growth inhibition, compound COC(=O)[C@]1(C)CCCC2(C)C3=C(CCC21)CC1(CC3)SCCS1 (stereo not given in full) : ____
92

Please report the recorded growth inhibition for CC(C)(C)c1cc(Nc2ccc([N+](=O)[O-])cc2[N+](=O)[O-])cc(C(C)(C)C)c1O .
99

Given the entry O=[N+]([O-])/C=C/c1c[nH]c2c1ccc1ccccc12 , report its measured growth inhibition.
92

---

TEST_DETAILS: NCI Yeast Anticancer Drug Screen. Data for the bub3 strain (AID 167)
PARTICULARS: S. cerevisiae bub3 mutant strain, at 50.0 µM
About 79,000 compounds went through this panel and 15% of them were active in at least one assay; those are over-represented in the sample as a whole. Activity calls are given as the source filed them. No stated cut-off is given here; in the data, active means growth inhibition above about 70%; inactive means the rest.
Hi! Could you answer with just one of these? active, inactive

Take a look at these entries with their results.
| COMPOUND | GROUP_LABEL |
| --- | --- |
| CCCN(CCC)CCNc1ccc(C)c2sc3ccccc3c(=O)c12 | active |
| CCOC(=O)c1c(N)sc2c1CCCCC2 | inactive |
| CCN(CC)c1cccc(OC(=O)Nc2cccc(C(F)(F)F)c2)c1 | active |
| CCOc1cnn(-c2ccccc2)c(=O)c1SCc1ccc(Cl)c(Cl)c1 | inactive |
| FC(F)(F)c1ccc(Cl)c(NC(=S)SC2CCCCC2)c1 | active |
| CCC[CH2][Sn]([CH2]CCC)([O]C(=O)c1cccc(F)c1F)[O]C(=O)c1cccc(F)c1F | active |

Outcome? COc1ccc(OC(C)=O)c2c1CCC=CC2=O
inactive

Hi, do you know how Nc1nc(-c2ccccc2)nc(Cl)c1I came out in this test?
inactive

Could you kindly confirm the outcome this assay logged for CC(=O)N1CC(C)CC2OC3(CCC4C5CCC6CC(O)CCC6(C)C5C(=O)C4C3C)C(C)C21 (centres undefined) ?
active

What classification did O=S(=O)(c1cc(Cl)ccc1Cl)N1CCc2ccccc2C1 end up with in this test?
inactive

Outcome? O=c1c2ccccc2nc(-c2ccccc2)n1NC(=S)Nc1ccc(Cl)cc1[N+](=O)[O-]
active

---

TEST_DETAILS: NCI Yeast Anticancer Drug Screen. Data for the rad50 strain (AID 155);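 also: 0% = growth of vehicle-only cultures of the same strain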
PARTICULARS: S. cerevisiae rad50 strain growth inhibition; at 50.0 µM
This is part of a sample that, as a whole, favours compounds with a hit. Of some 79,000 tested, about 15% had one in any assay. Active and inactive are the calls of the source. Cut-off read from the data, not from the text of the source: active = growth inhibition above about 70%; inactive = the rest.
Field 'call' accepts yes = active, no = inactive

Reference set, count: 3
| COMPOUND | GROUP_LABEL |
| --- | --- |
| O=S(=O)(c1cc(Cl)ccc1Cl)N1CCc2ccccc2C1 | no |
| Cc1c(-c2ccc(C(=N)N)cc2)oc(-c2ccc(C(=N)N)cc2)c1C | yes |
| O=C(/C=C/c1ccccc1)CCN1CCC2CCC(C2)C1 (stereo not given) | no |

Now look at this one.
Can you look up the reported call for NC(=S)NNC(=O)c1cccnc1 for me?
no
